# TARGET UNDER TEST: full-length SHP2 (Homo sapiens, UniProt Q06124)
# Construct: 1 nM full-length SHP2 (His6-tagged SHP2(2-527), recombinantly expressed in E. coli and purified in-house); His6; made in house; host or cells: E. coli
# Sequence (Q06124 2-527): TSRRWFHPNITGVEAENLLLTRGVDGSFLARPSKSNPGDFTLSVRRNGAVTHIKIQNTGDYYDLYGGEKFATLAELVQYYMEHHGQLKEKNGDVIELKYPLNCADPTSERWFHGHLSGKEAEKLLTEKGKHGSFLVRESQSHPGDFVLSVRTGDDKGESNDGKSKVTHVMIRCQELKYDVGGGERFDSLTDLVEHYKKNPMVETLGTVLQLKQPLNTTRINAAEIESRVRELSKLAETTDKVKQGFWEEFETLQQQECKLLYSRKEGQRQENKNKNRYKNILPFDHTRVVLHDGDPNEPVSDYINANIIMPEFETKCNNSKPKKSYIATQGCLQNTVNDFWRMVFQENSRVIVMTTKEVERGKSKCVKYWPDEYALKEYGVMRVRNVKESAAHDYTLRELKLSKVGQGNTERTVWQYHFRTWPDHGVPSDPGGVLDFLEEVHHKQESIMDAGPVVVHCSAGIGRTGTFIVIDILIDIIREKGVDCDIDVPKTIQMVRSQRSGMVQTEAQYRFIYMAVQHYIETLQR
# ASSAY DETAILS: SHP2 enzymatic assay (fluorescence intensity kinetic assay, DiFMUP hydrolysis)
# Format: biochemical
# APPLIED CONDITIONS: 1 nM His6-tagged SHP2(2-527), 1 μM activating peptide, 50 μM DiFMUP; single assay or mean of multiple assays; read-out: Biological Example 1 IC50
Define the label as YES when IC50 is strictly less than 60 nM and as NO in all remaining cases.

MOLECULE	DISCRETE LABEL
CC1(N)CCCN(c2ncc(Sc3cccc(Cl)c3Cl)nn2)CC1 (stereo not shown)	NO
CNc1nccc(Sc2cnc(N3CCC4(CC3)Cc3ccccc3[C@H]4N)nn2)c1Cl	YES
Cc1nc2c(s1)[C@@H](N)C1(CCN(c3ncc(Sc4ccnc(N)c4Cl)nn3)CC1)C2	NO
Nc1nccc(Sc2cnc(N3CCC4(CC3)Cc3ncc(Cl)cc3[C@H]4N)nn2)c1Cl	NO
Cc1nccc(Sc2cnc(N3CCC4(CC3)Cc3ccccc3[C@H]4N)nn2)c1C	YES

Is IC50 strictly under 60 nM for the entry `Nc1nccc(Sc2cnc(N3CCC4(CC3)Cc3ncsc3[C@H]4N)nn2)c1Cl` ?
YES

Check if IC50 falls below 60 nM for `N[C@@H]1c2ccccc2CC12CCN(c1ncc(Oc3cccc4cnccc34)nn1)CC2` .
NO
